# TESTED ON: T1, recombinant mUHRF1 V2 (mouse)
# T1 chain: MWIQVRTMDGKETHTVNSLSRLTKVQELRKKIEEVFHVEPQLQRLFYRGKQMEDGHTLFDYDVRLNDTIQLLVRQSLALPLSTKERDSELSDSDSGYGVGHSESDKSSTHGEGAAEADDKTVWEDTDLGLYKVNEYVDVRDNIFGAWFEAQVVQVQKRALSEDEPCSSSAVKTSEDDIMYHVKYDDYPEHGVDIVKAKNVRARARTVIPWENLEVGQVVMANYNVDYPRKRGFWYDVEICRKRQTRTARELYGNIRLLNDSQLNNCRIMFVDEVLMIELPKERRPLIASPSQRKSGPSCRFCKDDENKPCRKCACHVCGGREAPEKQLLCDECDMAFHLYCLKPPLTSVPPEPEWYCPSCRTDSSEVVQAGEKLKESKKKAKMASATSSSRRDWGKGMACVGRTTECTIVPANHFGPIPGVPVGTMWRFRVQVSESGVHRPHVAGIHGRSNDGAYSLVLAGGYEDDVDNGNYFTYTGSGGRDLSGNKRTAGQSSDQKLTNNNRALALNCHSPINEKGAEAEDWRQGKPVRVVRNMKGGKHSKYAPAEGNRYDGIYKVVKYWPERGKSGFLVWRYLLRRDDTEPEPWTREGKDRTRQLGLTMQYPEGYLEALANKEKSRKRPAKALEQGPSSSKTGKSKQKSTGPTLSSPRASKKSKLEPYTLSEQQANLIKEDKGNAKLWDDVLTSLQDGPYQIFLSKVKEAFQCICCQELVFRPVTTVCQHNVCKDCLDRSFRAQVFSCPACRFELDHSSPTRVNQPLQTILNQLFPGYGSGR
# PROTOCOL DESCRIPTION: MST
READOUT NAME: pKd
In textbook form, pKd equals minus log to base ten of the concentration in mol/L.

Exam item: Consider the binder ARTKQTARKSTGGKA (trimethyl-lysine at K9) [H3K9me3 peptide (titrated in MST)] and give its measured pKd.
Marked response: 5.40
